# System: Sindbis virus
# methodNotes: Antiviral activity against Sindbis virus infected in African green monkey Vero cells assessed as reduction of virus-induced cytopathogenicity
# Assay type: functional, organism-based
Active and inactive are the calls of the source. No cut-off for these calls is given here.
quantityKind: Activity

Here's what some known entries look like.
compound: CCOP(=O)(OCC)[C@@H]1C[C@@H](CN2C(=O)c3cccc4cc(NC(C)=O)cc(c34)C2=O)ON1C (relative stereo)
targetOrTestSystem: Sindbis virus
reportedMeasurement: inactive
--
compound: CCOP(=O)(OCC)[C@@H]1C[C@H](CN2C(=O)c3cccc4cc(N)cc(c34)C2=O)ON1C (relative stereo)
targetOrTestSystem: Sindbis virus
reportedMeasurement: inactive
--
compound: CCOP(=O)(OCC)[C@@H]1C[C@@H](CN2C(=O)c3cccc4cc(N)cc(c34)C2=O)ON1C (relative stereo)
targetOrTestSystem: Sindbis virus
reportedMeasurement: inactive
--
compound: CCOP(=O)(OCC)[C@@H]1C[C@@H](CN2C(=O)c3cccc4cccc(c34)C2=O)ON1C (relative stereo)
targetOrTestSystem: Sindbis virus
reportedMeasurement: inactive
--
compound: CCOP(=O)(OCC)[C@@H]1C[C@H](CN2C(=O)c3cccc4cc(NC(C)=O)cc(c34)C2=O)ON1C (relative stereo)
targetOrTestSystem: Sindbis virus
reportedMeasurement: inactive
--
compound: CCOP(=O)(OCC)[C@@H]1C[C@H](CN2C(=O)c3cccc4cc([N+](=O)[O-])cc(c34)C2=O)ON1C (relative stereo)
targetOrTestSystem: Sindbis virus
reportedMeasurement: inactive
--
compound: CCOP(=O)(OCC)[C@@H]1C[C@H](CN2C(=O)c3cccc4cccc(c34)C2=O)ON1C (relative stereo)
targetOrTestSystem: Sindbis virus
reportedMeasurement: inactive

May I ask what Activity has been recorded for CCOP(=O)(OCC)[C@@H]1C[C@@H](CN2C(=O)c3cccc4cc([N+](=O)[O-])cc(c34)C2=O)ON1C (relative stereo) ? inactive

====

# System: HeLa
# methodNotes: Cytotoxicity against human HeLa cells assessed as reduction of cell survival after 48 hrs by MTT assay
# Type: functional, cell-based
quantityKind: IC50 (µM)
Give the value in µM but do not write µM after it.

Entry CCOP(=O)(OCC)C1CC(c2ccc3ccccc3c2)ON1C (stereo unspecified) : reported IC50 = ? 50

====

# methodNotes: Cytotoxicity against CRFK cells assessed cell viability by MTS assay
# Assay type: cell-based, Felis catus
# settings: cat
quantityKind: CC50 (µM)
Reply with just the number (in µM).

compound: CCOP(=O)(OCC)[C@@H]1C[C@H](C(=O)Nc2cc3c4c(cccc4c2)C(=O)N(CCN2CCCC2)C3=O)ON1C (racemic)
CC50 / µM: 89.1

Sample CCOP(=O)(OCC)[C@@H]1C[C@H](C(=O)Nc2cc3c4c(cccc4c2)C(=O)N(CCN(C)C)C3=O)ON1C (racemic) — what was its CC50? 62.2

====

# methodNotes: Cytotoxicity against CRFK cells assessed cell viability by MTS assay
# Assay type: cell-based, Felis catus
# settings: cat
Overview of reported CC50 across a group of compounds:

Study these solved cases before continuing.
compound: CCOP(=O)(OCC)[C@@H]1C[C@H](C(=O)Nc2cc3c4c(cccc4c2)C(=O)N(CC(C)C)C3=O)ON1C (racemic)
CC50: > 100 µM

compound: CCOP(=O)(OCC)[C@@H]1C[C@@H](C(=O)Nc2cc3c4c(cccc4c2)C(=O)N(CCN(C)C)C3=O)ON1C (racemic)
CC50: 95.2 µM

compound: CCCN1C(=O)c2cccc3cc(NC(=O)[C@H]4C[C@@H](P(=O)(OCC)OCC)N(C)O4)cc(c23)C1=O (racemic)
CC50: > 100 µM

What does the data say about its CC50? Entry: CCCCN1C(=O)c2cccc3cc(NC(=O)[C@@H]4C[C@@H](P(=O)(OCC)OCC)N(C)O4)cc(c23)C1=O (racemic) > 100 µM

====

Entries and their IC50 values follow.
# System: HeLa
# methodNotes: Cytotoxicity against human HeLa cells assessed as inhibition of cell proliferation
# Assay type: functional, cell-based
Kindly provide the numeric value in µM only, without the unit symbol.

Example entries and their recorded answers appear below.
compound: CCOP(=O)(OCC)[C@@H]1C[C@H](C(=O)Nc2cc3c4c(cccc4c2)C(=O)N(CCN(C)C)C3=O)ON1C (racemic)
targetOrTestSystem: HeLa
unitName: µM
IC50: 3.3
--
compound: CCOP(=O)(OCC)[C@@H]1C[C@@H](C(=O)Nc2cc3c4c(cccc4c2)C(=O)N(CC(C)C)C3=O)ON1C (relative stereo)
targetOrTestSystem: HeLa
unitName: µM
IC50: 56
--
compound: CCCCN1C(=O)c2cccc3cc(NC(=O)[C@@H]4C[C@@H](P(=O)(OCC)OCC)N(C)O4)cc(c23)C1=O (racemic)
targetOrTestSystem: HeLa
unitName: µM
IC50: 78
--
compound: CCOP(=O)(OCC)[C@@H]1C[C@H](C(=O)Nc2cc3c4c(cccc4c2)C(=O)N(CCN2CCCC2)C3=O)ON1C (racemic)
targetOrTestSystem: HeLa
unitName: µM
IC50: 3
--
compound: CCOP(=O)(OCC)[C@@H]1C[C@@H](C(=O)Nc2cc3c4c(cccc4c2)C(=O)N(CCN2CCCC2)C3=O)ON1C (relative stereo)
targetOrTestSystem: HeLa
unitName: µM
IC50: 1.1

Fill in the blank: the reported IC50 of CCCN1C(=O)c2cccc3cc(NC(=O)[C@H]4C[C@@H](P(=O)(OCC)OCC)N(C)O4)cc(c23)C1=O (racemic) is ____. 70

Which IC50 is listed for CCOP(=O)(OCC)[C@@H]1C[C@@H](C(=O)Nc2cc3c4c(cccc4c2)C(=O)N(CCN(C)C)C3=O)ON1C (racemic) ? 1.8

====

Entries annotated with measured CC50
# System: MDCK
# methodNotes: Cytotoxicity against MDCK cells assessed cell viability by MTS assay
# Type: cell-based, Canis lupus familiaris
# settings: dog
Enter your answer as a number in µM; do not include the unit.

compound: CCCN1C(=O)c2cccc3cc(NC(=O)[C@@H]4C[C@@H](P(=O)(OCC)OCC)N(C)O4)cc(c23)C1=O (racemic)
unitName: µM
reportedMeasurement: 46.2

compound: CCOP(=O)(OCC)[C@@H]1C[C@H](C(=O)Nc2cc3c4c(cccc4c2)C(=O)N(CC(C)C)C3=O)ON1C (racemic)
unitName: µM
reportedMeasurement: 51.8

compound: CCOP(=O)(OCC)[C@@H]1C[C@@H](C(=O)Nc2cc3c4c(cccc4c2)C(=O)N(CCN2CCCC2)C3=O)ON1C (relative stereo)
unitName: µM
reportedMeasurement: 87.3

Next, consider the following compound.
Bench note: what CC50 did CCOP(=O)(OCC)[C@@H]1C[C@@H](C(=O)Nc2cc3c4c(cccc4c2)C(=O)N(CCN(C)C)C3=O)ON1C (racemic) show? 75.2

====

# Tested on: HeLa
# methodNotes: Cytotoxicity against human HeLa cells assessed as inhibition of cell proliferation
# Type: functional, cell-based
quantityKind: pIC50
Note on pIC50: it is the negative log10 of concentration, concentration in mol/L.

molecule: CCCN1C(=O)c2cccc3cc(NC(=O)[C@@H]4C[C@@H](P(=O)(OCC)OCC)N(C)O4)cc(c23)C1=O (racemic)
targetOrTestSystem: HeLa
reportedMeasurement: 4.13

What does the record list as pIC50 for CCOP(=O)(OCC)[C@@H]1C[C@@H](C(=O)Nc2cc3c4c(cccc4c2)C(=O)N(CCN(CC)CC)C3=O)ON1C (racemic) ? 4.89

Would you mind telling me what pIC50 value was observed for CCOP(=O)(OCC)[C@@H]1C[C@H](C(=O)Nc2cc3c4c(cccc4c2)C(=O)N(CCN(CC)CC)C3=O)ON1C (racemic) ? 5.14

Give the measured pIC50 of CCOP(=O)(OCC)[C@@H]1C[C@H](C(=O)Nc2cc3c4c(cccc4c2)C(=O)N(CC(C)C)C3=O)ON1C (racemic) . 4.31

====

# Tested on: Cytomegalovirus
# methodNotes: Antiviral activity against Cytomegalovirus Davis infected in HEL cells assessed as reduction of virus-induced cytopathogenicity
# Assay type: functional, organism-based
# settings: Human betaherpesvirus 5, Davis
quantityKind: EC50 (µM)
Give the quantity in µM, number only.

Solved cases (5 shown):
molecule: CCCN1C(=O)c2cccc3cc(NC(=O)[C@@H]4C[C@@H](P(=O)(OCC)OCC)N(C)O4)cc(c23)C1=O (racemic)
unitName: µM
EC50: 45
--
molecule: CCOP(=O)(OCC)[C@@H]1C[C@H](C(=O)Nc2cc3c4c(cccc4c2)C(=O)N(CCN2CCCC2)C3=O)ON1C (racemic)
unitName: µM
EC50: 45
--
molecule: CCOP(=O)(OCC)[C@@H]1C[C@H](C(=O)Nc2cc3c4c(cccc4c2)C(=O)N(CC(C)C)C3=O)ON1C (racemic)
unitName: µM
EC50: 45
--
molecule: CCOP(=O)(OCC)[C@@H]1C[C@@H](C(=O)Nc2cc3c4c(cccc4c2)C(=O)N(CCN(C)C)C3=O)ON1C (racemic)
unitName: µM
EC50: 8.9
--
molecule: CCCN1C(=O)c2cccc3cc(NC(=O)[C@H]4C[C@@H](P(=O)(OCC)OCC)N(C)O4)cc(c23)C1=O (racemic)
unitName: µM
EC50: 45

We now examine a further molecule.
I would be grateful if you could share the reported EC50 for Nc1nc2c(ncn2COC(CO)CO)c(=O)[nH]1 . 7.1
